# Tested on: MGC-803
# measurementDescription: Antiproliferative activity (SRB and CCK-8 assay)
# Assay type: cell-based
# condition: Homo sapiens, triplicate, mean ± SD, read-out: IC50 ± SD, MGC-803
endpointName: IC50 (nM)

Below, 4 compounds whose answers are already recorded.
{"columns": ["compound", "resultNumber"],
 "data": [
  ["COc1cc(C(=O)/C=C/c2ccc3oc4ccccc4c3c2)cc(OC)c1OC [Compound 6l]", 326],
  ["COc1cc(C(=O)/C=C/c2coc3ccccc23)cc(OC)c1OC [Compound 6j]", 395],
  ["COc1cc(C(=O)/C=C/c2c(C)[nH]c3ccccc23)cc(OC)c1OC [Compound 6b]", 190],
  ["COc1cc(C(=O)/C=C/c2c[nH]c3cc(Br)ccc23)cc(OC)c1OC [Compound 6g]", 71]
]}

(A) COc1cc(C(=O)/C=C/c2cccc3c2OCO3)cc(OC)c1OC [Compound 6s]
(B) COc1cc(C(=O)/C=C/c2ccc3sc4ccccc4c3c2)cc(OC)c1OC [Compound 6q]
Enquiry: Compare A and B by numeric IC50 and name the larger one. Respond using the label that marks the chosen record.
Return: B
(B: 3220 nM, A: 393 nM)

###

# Tested on: MCF-7
# measurementDescription: Antiproliferative activity, SRB assay;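 note: proliferation of MCF7 cells quantified by sulforhodamine B staining, with optical density read at 560 nm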
# Assay type: cell-based, human
# condition: Homo sapiens, MCF7, three single determinations; read-out: MCF-7 (raw data of table 3, IC50)
endpointName: pIC50
In simple prose, pIC50 is minus the logarithm base ten of a concentration in moles per litre.

{"columns": ["compound", "targetOrSystem", "pIC50"],
 "data": [
  ["COc1ccc(/C=C\\c2cc(OC)c(OC)c(OC)c2)cc1O [CA-4, reference compound]", "MCF-7", 7.93]
]}

Now for another entry.
# pIC50 measured on MCF-7 for item CC(=O)O[C@H]1C(=O)[C@@]2(C)[C@H]([C@H](OC(=O)c3ccccc3)[C@]3(O)C[C@H](OC(=O)[C@H](O)[C@@H](NC(=O)c4ccccc4)c4ccccc4)C(C)=C1C3(C)C)[C@]1(OC(C)=O)CO[C@@H]1C[C@@H]2O [Taxol, paclitaxel] = 7.69

###

endpointName: melting point

Use these answered entries as a reference point.
{"columns": ["compound", "melting point"],
 "data": [
  ["COc1cc(C(=O)/C(C#N)=C/c2csc3ccccc23)cc(OC)c1OC [Compound 8p]", "201.8 to 203.1 °C"],
  ["COc1cc(C(=O)/C=C/c2ccc3sc4ccccc4c3c2)cc(OC)c1OC [Compound 6q]", "118.7 to 119.2 °C"],
  ["COc1cc(C(=O)/C=C/c2nc3ccccc3n2C)cc(OC)c1OC [Compound 6r]", "123.5 to 125.2 °C"],
  ["COc1cc(C(=O)/C=C/c2ccc3c(c2)CCO3)cc(OC)c1OC [Compound 6n]", "107.5 to 110.3 °C"]
]}

Lab book: melting point of COC(=O)c1ccc2c(/C=C(\C#N)C(=O)c3cc(OC)c(OC)c(OC)c3)c[nH]c2c1 [Compound 8f] noted as 239.7 to 241 °C

Reported melting point of COc1cc(C(=O)/C(C#N)=C/c2cc3c(cc2[N+](=O)[O-])OCO3)cc(OC)c1OC [Compound 8k] : 160.1 to 163.8 °C

The compound identified as COc1cc(C(=O)/C(C#N)=C/c2nc3ccccc3n2C)cc(OC)c1OC [Compound 8r] registered its melting point at 201.8 to 203.1 °C

Lab note: COc1cc(C(=O)/C=C/c2csc3ccccc23)cc(OC)c1OC [Compound 6p] gave melting point of 95.5 to 96.4 °C

melting point measured on COC(=O)c1cccc2[nH]cc(/C=C(\C#N)C(=O)c3cc(OC)c(OC)c(OC)c3)c12 [Compound 8d] = 176.7 to 178.2 °C

The recorded melting point for entry COc1cc(C(=O)/C(C)=C/c2c(C)[nH]c3ccccc23)cc(OC)c1OC [Compound 7b] equals 152.7 to 153.2 °C

Kindly note the recorded melting point for COc1cc(C(=O)/C(C#N)=C/c2c(-c3ccccc3)[nH]c3ccccc23)cc(OC)c1OC [Compound 8c] , which is 253.8 to 255.9 °C

The compound identified as COc1cc(C(=O)/C(C#N)=C/c2coc3ccccc23)cc(OC)c1OC [Compound 8j] registered its melting point at 176.5 to 178.4 °C

The compound COc1cc(C(=O)/C(C#N)=C/c2cc3c(cc2Br)OCO3)cc(OC)c1OC [Compound 8t] showed melting point equal to 207.1 to 209 °C

Summary for this compound, COc1cc(C(=O)/C(C)=C/c2cccc3c2OCO3)cc(OC)c1OC [Compound 7s] : melting point is 119.7 to 120.9 °C

The compound COC(=O)c1ccc2[nH]cc(/C=C(\C)C(=O)c3cc(OC)c(OC)c(OC)c3)c2c1 [Compound 7e] showed melting point equal to 210.4 to 213.7 °C

# melting point of COc1cc(C(=O)/C(C#N)=C/c2cccc3c2OCO3)cc(OC)c1OC [Compound 8s] = 176.3 to 177.8 °C

Entry COC(=O)c1ccc2[nH]cc(/C=C/C(=O)c3cc(OC)c(OC)c(OC)c3)c2c1 [Compound 6e] ; melting point = 218.7 to 220.3 °C

###

endpointName: melting point

{"columns": ["entrySmiles", "melting point"],
 "data": [
  ["COc1cc(C(=O)/C(C#N)=C/c2ccc3sc4ccccc4c3c2)cc(OC)c1OC", "199.7 to 201.1 °C"]
]}

melting point reported for this molecule `COC(=O)c1cccc2[nH]cc(/C=C/C(=O)c3cc(OC)c(OC)c(OC)c3)c12` : 221.7 to 223.6 °C

melting point recorded for this molecule, `COc1cc(C(=O)/C(C#N)=C/c2c[nH]c3ccccc23)cc(OC)c1OC` , is 224.2 to 229.3 °C

melting point measured on `COc1cc(C(=O)/C(C#N)=C/c2ccc3occc3c2)cc(OC)c1OC` = 169.7 to 172.1 °C

Input `COc1cc(C(=O)/C=C/c2cc3ccccc3s2)cc(OC)c1OC` . Output melting point: 115.5 to 116.9 °C

melting point for `COc1cc(C(=O)/C(C)=C/c2cc3ccccc3o2)cc(OC)c1OC` is 50.1 to 53.2 °C

For `COc1cc(C(=O)/C=C/c2coc3ccccc23)cc(OC)c1OC` the molecule record lists melting point as 117.5 to 120.8 °C
